What follows is a collection of IC50 values obtained with Epidermal growth factor receptor (Homo sapiens, UniProt P00533, L858R/T790M).
Sequence (P00533 25-1210 T790M/L858R limits assumed): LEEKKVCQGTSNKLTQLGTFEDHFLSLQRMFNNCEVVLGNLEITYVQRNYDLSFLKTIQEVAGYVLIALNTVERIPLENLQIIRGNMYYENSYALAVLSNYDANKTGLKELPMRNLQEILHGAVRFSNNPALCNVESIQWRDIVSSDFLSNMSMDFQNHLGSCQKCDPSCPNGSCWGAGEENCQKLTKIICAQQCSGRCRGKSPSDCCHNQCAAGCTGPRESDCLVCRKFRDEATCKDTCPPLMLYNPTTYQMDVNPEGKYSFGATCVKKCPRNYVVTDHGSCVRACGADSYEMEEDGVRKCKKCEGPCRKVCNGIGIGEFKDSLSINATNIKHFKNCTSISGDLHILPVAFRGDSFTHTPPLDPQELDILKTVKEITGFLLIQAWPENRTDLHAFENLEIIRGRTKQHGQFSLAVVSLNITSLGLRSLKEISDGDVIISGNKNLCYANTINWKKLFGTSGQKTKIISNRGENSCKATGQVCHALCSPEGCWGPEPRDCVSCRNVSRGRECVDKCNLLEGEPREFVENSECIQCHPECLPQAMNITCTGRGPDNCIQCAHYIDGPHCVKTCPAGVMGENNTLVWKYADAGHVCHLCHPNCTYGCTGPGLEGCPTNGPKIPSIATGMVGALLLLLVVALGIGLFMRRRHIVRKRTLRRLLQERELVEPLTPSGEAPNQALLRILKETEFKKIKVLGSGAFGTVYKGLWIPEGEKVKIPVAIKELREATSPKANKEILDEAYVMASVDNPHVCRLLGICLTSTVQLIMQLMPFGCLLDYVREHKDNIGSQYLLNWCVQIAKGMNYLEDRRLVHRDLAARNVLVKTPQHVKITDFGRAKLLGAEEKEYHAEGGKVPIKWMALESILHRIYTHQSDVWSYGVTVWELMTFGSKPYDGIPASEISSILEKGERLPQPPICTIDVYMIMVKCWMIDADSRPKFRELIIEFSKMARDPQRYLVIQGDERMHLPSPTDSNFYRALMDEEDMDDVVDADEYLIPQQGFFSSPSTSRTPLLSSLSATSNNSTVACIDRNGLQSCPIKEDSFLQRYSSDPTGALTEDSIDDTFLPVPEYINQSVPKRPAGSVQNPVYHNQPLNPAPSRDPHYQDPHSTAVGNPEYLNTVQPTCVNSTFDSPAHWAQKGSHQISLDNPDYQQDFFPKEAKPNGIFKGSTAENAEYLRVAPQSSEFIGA
Parameter: IC50 (µM)

{"columns": ["Entry Smiles", "Parameter", "Value"],
 "data": [
  ["C=CC(=O)Nc1cccc(Oc2nc(Nc3ccc(/C=C/c4cc(C)cc(C)c4)cc3)ncc2Cl)c1", "IC50", 0.0224],
  ["C=CC(=O)Nc1cccc(Nc2nc(Nc3ccc(/C=C/c4ccc(C)cc4C)cc3)ncc2Cl)c1", "IC50", 0.0068],
  ["C=CC(=O)Nc1cccc(Nc2nc(Nc3ccc(/C=C/c4cc(C)cc(C)c4)cc3)ncc2F)c1", "IC50", 0.011],
  ["C=CC(=O)Nc1cccc(Nc2nc(Nc3ccc(/C=C/c4cc(C)cc(C)c4)cc3)ncc2Cl)c1", "IC50", 0.0265],
  ["C=CC(=O)Nc1cccc(Nc2nc(Nc3ccc(/C=C/c4cc(Cl)cc(Cl)c4)cc3)ncc2Cl)c1", "IC50", 0.0113]
]}
